Reference source for all entries: PubChem BioAssay (NCI)

# Test Protocol: NCI Yeast Anticancer Drug Screen. Data for the cln2 rad14 strain (AID 165);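 also: 0% = growth equal to vehicle treated cultures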
# Experimental Setup: S. cerevisiae cln2 rad14 strain, at 50.0 µM, hits give high values
This is part of a sample that, as a whole, favours compounds with a hit. Of some 79,000 tested, about 15% had one in any assay.
For each of the compounds below, state its growth inhibition.
The figure you give is taken to be in %; do not add the unit.

Recorded growth inhibition (compound "O=C(Nc1ccc(Cl)cc1C(=O)O)c1ccc([N+](=O)[O-])cc1" ): 38.8

compound "Cc1c2cnccc2c(C)c2c1c1ccccc1n2CCCCCCCl" , growth inhibition observed: 66

Measured growth inhibition, "CC(C)(C)[Si](C)(C)OCCCC#CCO" : 14.4

Memo: CC(C)(C)OC(=O)NC(CCCCNC(=O)OCc1ccccc1)C(=O)NCCNc1ccc(NCCNC(=O)C(CCCCNC(=O)OCc2ccccc2)NC(=O)OC(C)(C)C)c2c1C(=O)c1ccccc1C2=O (centres undefined) , reported growth inhibition: -1.4

Value of growth inhibition reported for the compound "CCOC(=O)CNCc1cccc(C)c1" is -82.8

Field growth inhibition (entry OC1CCCNC1 (centres undefined) ) reads 18.1

get_value(item= CCCCC1CC(c2ccc(Cl)cc2)=NO1 (centres undefined) , readout=growth inhibition) returns -1.55

Briefly, growth inhibition measured for "CCOC(=O)c1c(/N=C/c2ccc3c(c2)OCO3)sc2c1CCCC2" : 11.8

// growth inhibition lookup, compound = "Oc1c(Cl)cc(Cl)cc1/C=N/c1nc(-c2ccc(Cl)cc2)cs1" , result: 28.1

Lookup result for "C/C=C/C(=O)Oc1ccccc1/C=C/C(=O)CCCCCC" ; measured growth inhibition: 8.25

get_value(item= "Nc1ccccc1C(=O)/C=C/c1c(O)ccc2ccccc12" , readout=growth inhibition) returns 15.9

Looking up "C/C(=N\N=C(/C)c1ccc(N)cc1)c1ccc(N)cc1" , I found its growth inhibition recorded as -3.3

Reported growth inhibition of C1=C(c2ccccc2)C(OC2Oc3ccccc3C=C2c2ccccc2)Oc2ccccc21 (centres undefined) : 11.9

For reference, reported growth inhibition for "CCC(=O)c1cc(-c2cc(C(=O)CC)[nH]n2)n[nH]1" stands at -18.4

The recorded growth inhibition for "CC(=O)Nc1nc(C)c(CCCOc2ccc([N+](=O)[O-])cc2)c(Cl)n1" is 1.4

The recorded growth inhibition for "Clc1ccc(-c2ccncc2)cc1" is -69.7

Quick note, growth inhibition for "CCc1c(O)c2c(c(O)c1C(C)=O)C(=O)c1c(cc(O)c(C(=O)O)c1C(=O)O)C2=O" landed at 10.2

// "O=C(O)c1ccccc1/C=N/NC1=NCCCCN1" : growth inhibition value = -9.65

Just so you know, measured growth inhibition for "CN1CCC=C(COC(=O)C(C)(C)C)C1" came out at 7.45

growth inhibition reading for "CCCC1=C(c2ccc(OC)cc2)Cc2cc(OC)ccc21" : -2.4

# growth inhibition (compound: "O=C(CBr)OCCC1CCCCC1" ) is -36.5

# compound "CC(=O)Nc1ccc(S(=O)(=O)N=S(c2ccccc2)c2ccccc2)cc1" ; its growth inhibition = 10.8

Input "COc1ccc(/C=N/NC(=O)O)cc1" . Output growth inhibition: -12.3

The recorded growth inhibition for entry "O=C1c2ccccc2C(=O)N1C1CCCCC1" equals -4.25

---

Please go through the items and note down their growth inhibition.
# Test Protocol: NCI Yeast Anticancer Drug Screen. Data for the cln2 rad14 strain (AID 165);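 also: 0% = growth equal to vehicle treated cultures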
# Experimental Setup: S. cerevisiae cln2 rad14 strain, at 50.0 µM, hits give high values
The panel holds about 79,000 compounds, 15% with a hit somewhere; the sample as a whole holds those more often.
Answer with a number only, understood to be in %.

Documented growth inhibition of CCC/C(=N/NC(=O)C1CCCO1)c1ccccc1 (stereo not given) : -4.2

Reported growth inhibition ( "Cc1nc(C(N)=S)sc1C(=O)CC(=O)C(=O)Nc1c(C(C)C)cccc1C(C)C" ) = -24.9

Reported growth inhibition of COCC(C)OC(=O)c1ccccc1 (stereo not given) : -23.4

// "CCOC(=O)NN(C(=O)OCC)C(=C(C1=CCCCC1)N1CCOCC1)N(NC(=O)OCC)C(=O)OCC" : growth inhibition value = 1.9

Per the record, "CCOC(=O)C(=CNc1ccc(N(CC)CC)cc1)C(=O)OCC" has growth inhibition of 47.6

Measured growth inhibition of "O=C(OCc1ccccc1CN1CCCC1)c1ccc([N+](=O)[O-])cc1Cl" : -52.7

# growth inhibition (compound: "CC1=C(C(=O)Nc2ccccc2)C(c2ccc(C3C(C(=O)Nc4ccccc4)=C(C)NC(C)=C3C(=O)Nc3ccccc3)cc2)C(C(=O)Nc2ccccc2)=C(C)N1" ) is 41.5

// field: growth inhibition; key: "COc1ccc(-c2nc(N3CCCC3)no2)cc1" ; value = 3.85

Lookup result for N#Cc1ccccc1NC(=O)C(=O)C(C(=O)c1ccccc1F)C1OC(=O)c2ccccc21 (stereo not given) ; measured growth inhibition: -5.5

Entry "Cc1cccc(/C=N/Nc2ccc([N+](=O)[O-])cc2[N+](=O)[O-])c1C" , growth inhibition reported as -11.2

---

# Test Protocol: NCI Yeast Anticancer Drug Screen. Data for the mec2-1 strain (AID 157)
# Experimental Setup: S. cerevisiae mec2-1 strain, at 50.0 µM, hits give high values
This is part of a sample that, as a whole, favours compounds with a hit. Of some 79,000 tested, about 15% had one in any assay.
Property Measured: growth inhibition (%)
API: value field is a number in %; no unit string.

// growth inhibition lookup, compound = "c1cc(-c2cn3c(n2)SCC3)ccn1" , result: 5.9

get_value(item= "CC(=O)C(C)(C)OC(=O)COc1ccc(Cl)cc1" , readout=growth inhibition) returns -2.75

Entry "COc1cc(C)oc(=O)c1" — recorded growth inhibition = 6.15

// recorded growth inhibition for "COC(=O)c1ccccc1NC(=O)Nc1cccc(Cl)c1C" : -2.25

GET /value?item= "CCc1ccc(N=Nc2c(F)c(F)c(N)c(F)c2F)cc1" &field=growth inhibition returns -11.3

Measured growth inhibition of "NC(=O)N/N=C(/Cl)C(=O)NNC(N)=O" : 6.25

---

# Test Protocol: NCI Yeast Anticancer Drug Screen. Data for the rad50 strain (AID 155);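 also: 0% = growth of vehicle-only cultures of the same strain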
# Experimental Setup: S. cerevisiae rad50 strain growth inhibition; at 50.0 µM; hits give high values
This is part of a sample that, as a whole, favours compounds with a hit. Of some 79,000 tested, about 15% had one in any assay. Active and inactive are the calls of the source. Cut-off read from the data, not from the text of the source: active = growth inhibition above about 70%; inactive = the rest.
For each entry below, report its growth inhibition value.

For record "ClCCOCCOc1ccccc1Cl" the listed growth inhibition is -24% (inactive)

growth inhibition reading for "O=C1c2cc3c(cc2CC12Cc1cc4c(cc1C2=O)CCCC4)CCCC3" : -42.1% (inactive)

GET /value?item= "COC(=O)C1=C(C(=O)OC)C(C)(C)N=N1" &field=growth inhibition returns 14.2% (inactive)

Kindly note the recorded growth inhibition for "S=C(Oc1ccccc1)Oc1ccc2ccccc2c1" , which is 9.7% (inactive)

Lookup result for "CC=C=C(C)CN" ; measured growth inhibition: -6.4% (inactive)

Record "CCCCC(=O)N/N=C/c1ccccc1OCC" , field growth inhibition: -7% (inactive)

Recorded result, "Cc1sc2nc3n(c(=O)c2c1C)N=CN(c1ccc(F)cc1)C3" , growth inhibition: 0.85% (inactive)

Input "CCCCCCCCSCCCC(=O)O" . Output growth inhibition: -16.9% (inactive)

Recorded growth inhibition (compound "O=C1c2cccc([N+](=O)[O-])c2C(=O)c2cccc(Cl)c21" ): 29.2% (inactive)

In plain terms, "CC(=O)CC(C)(C)NC(=S)Nc1ccc(O)cc1" has a documented growth inhibition of 99.7% (active)

C[CH2][Sn]([CH2]C)([O][P+](=O)C[Si](C)(C)c1ccccc1)[O][P+](=O)C[Si](C)(C)c1ccccc1 (configuration not stated) has a reported growth inhibition of 3.8% (inactive)

growth inhibition for "O=C1c2ccccc2C(=O)N1CCc1ccccc1" is -12.1% (inactive)

Consider "COC(=O)/C(C#N)=C(\C)CC(C)C" . Its measured growth inhibition is 13.2% (inactive)

Looking up "COc1cc(OC)c2[nH]c3c(c(=O)c2c1)C(=O)c1[nH]c2c(OC)cc(OC)cc2c(=O)c1C3=O" , I found its growth inhibition recorded as 26.8% (inactive)

The recorded growth inhibition for COc1ccc(NC(=O)C2C(=O)N(c3ccc(OC)cc3)C(=O)/C2=N\NC(N)=O)cc1 (configuration not stated) is -8.9% (inactive)

The value of growth inhibition measured for the compound O=C1OC(c2ccc(Cl)c3ccccc23)c2ccccc21 (configuration not stated) turned out to be 58.6% (inactive)

The compound CCC1CN2CCc3cc(OC)c(OC)cc3C2CC1CC1c2cc(OC)c(OC)cc2CCN1C(=O)C1CCCN1 (configuration not stated) showed growth inhibition equal to -1.45% (inactive)

Consider "COc1cc(C2C3=C(CCCC3=O)N(c3ccc(C)cc3)C3=C2C(=O)CCC3)c([N+](=O)[O-])cc1OC" . Its measured growth inhibition is -10.8% (inactive)

Per the records, this compound ( "CC(=O)c1ccccc1[N+](=O)[O-]" ) has growth inhibition equal to 2.95% (inactive)

Measured growth inhibition of "O=C(Nc1ccc(Cl)cc1)Nc1ccc(Cl)nn1" : -29.2% (inactive)

Record "CCOC(=O)NC(Nc1ccc(OC(F)(F)F)cc1)(C(F)(F)F)C(F)(F)F" , field growth inhibition: -8.7% (inactive)

Please fill in: growth inhibition reported for "CC/C(=C\c1ccc(Cl)cc1)c1ccncc1" = 99.2% (active)

Please fill in: growth inhibition reported for "CCOC(=O)C(=O)c1c[nH]c2ccccc12" = -3.35% (inactive)

O=C1C2=Nc3ccccc3C(O)N2c2ccccc21 (configuration not stated) has a reported growth inhibition of 12.8% (inactive)

Value of growth inhibition reported for the compound COC(=O)C(NC(=O)C(CC(=O)OC(C)(C)C)NC(=O)OC(C)(C)C)C(O)c1ccccc1 (configuration not stated) is -35.6% (inactive)

Form: compound = CCOC(=O)N1N=C(c2ccccc2)OC2(N3CCOCC3)CCC(C(C)(C)C)CC12 (configuration not stated) ; growth inhibition = 12.8% (inactive)

The compound listed as "Cc1ccc(C=C(C(=O)O)C(=O)O)o1" has a reported growth inhibition of -21.3% (inactive)

The recorded growth inhibition for entry "NCc1ccc(Cl)cc1" equals 8.65% (inactive)

Lab book: growth inhibition of CC(O)CN1CCN(CN(CC(C)O)CC(C)O)CC1 (configuration not stated) noted as 0.55% (inactive)

Recorded result, "COc1ccc(C(=C(I)c2ccccc2)c2ccc(OC)cc2)cc1" , growth inhibition: -31.6% (inactive)

# growth inhibition of "CC(=O)CC(=O)CCCCC(=O)O" = -0.15% (inactive)

The recorded growth inhibition for entry COc1ccccc1NC(=O)CC(=O)N1N=C(N2c3ccccc3Sc3ccccc32)CC1c1ccccc1 (configuration not stated) equals 2.55% (inactive)

Given item "CCCCCN(C(=O)c1ccccc1C(=O)N(CCCCC)c1ccccc1)c1ccccc1" , the value recorded as its growth inhibition is 15.3% (inactive)

# growth inhibition (compound: "COSCCCC(C)=O" ) is 25.5% (inactive)

compound "CCOCCOc1nc(C)cc(C)c1C#N" , growth inhibition observed: -30.9% (inactive)

Per the records, this compound ( Nc1cc(=O)n(C2OC(CO)C(O)C2O)cn1 (configuration not stated) ) has growth inhibition equal to 6.85% (inactive)

Reported growth inhibition of "CCCCCC(=O)OCCN(C)C" : -7.15% (inactive)

Entry under test: "CN1C(=O)CCSC1=S" . Its growth inhibition was 3.55% (inactive)

So, CCC(C(O)C(C)C)[N+](=O)[O-] (configuration not stated) ? Its growth inhibition was 14.2% (inactive)

Lab note: "Nc1ncnc(N)c1NC(=O)c1ccc(CCc2ccccc2)c(Cl)c1" gave growth inhibition of -3.9% (inactive)

growth inhibition for CCOC(=O)/C(C)=C\C1C(C)=CC(=O)CC1(C)C (configuration not stated) is -0.05% (inactive)

Lab note: "CC1(C)Cc2oc(=Nc3ccccc3)n(-c3ccccc3)c(=O)c2C1" gave growth inhibition of 9.95% (inactive)
